A collection of binders and their measured pKd
Biological target: T1, Cynomolgus monkey IL-13 (cynomolgus monkey, UniProt Q0PW92 21-132)
T1 construct: Biotinylated and captured on a streptavidin chip in the Biacore assays; also called cyno IL-13; cynomolgous IL-13
T1 sequence (Q0PW92 entry or part of it): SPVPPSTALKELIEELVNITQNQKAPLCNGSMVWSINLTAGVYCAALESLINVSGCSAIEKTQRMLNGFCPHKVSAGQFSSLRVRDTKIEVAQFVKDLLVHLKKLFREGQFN
Assay: Biacore SPR, biotinylated IL-13 on streptavidin chip, dAb as analyte, 1:1 model, 25 C
Here pKd is given on a logarithmic scale as minus log10 of the concentration in mol/L.

BINDER | pKd
DOM10-53-567 (other) VH: GVQLLESGGGLVQPGGSLRLSCAASGFVFAWYDMGWVRQAPGKGLEWVSSIDWHGEVTYYADSVKGRFTISRDNSKNTLYLQMNSLRAEDTAVYYCATAEDEPGYDYWGQGTLVTVSS | 8.59

Query :: Fill blank: measured pKd of the binder DOM10-53-546 (other) VH: GVQLLESGGGLVQPGGSLRLSCAASGFVFPWYDMGWVRQAPGKGLEWVSSIDWKGGKTYYADSVKGRFTISRDNSKNTLYLQMNSLRAEDTAVYYCATAEDEPGYDYWGQGTLVTVSS is ____.
Result :: 8.68

Query :: Fill blank: measured pKd of the binder DOM10-53-616 (other) VH: GVQLLESGGGLVQPGGSLRLSCAASGFVFPWYDMGWVRQAPGKGLEWVSSIDWHGKITYYADSVKGRFTISRDNSKNTLYLQMNSLRAEDTAVYYCATAEDEPGYDYWGQGTLVTVSS is ____.
Result :: 8.49
